assay: Brain protein binding in rats; type: in vitro ADME; conditions: rat, read-out: Brain protein binding (mean bound %) (converted)
// reported fraction unbound for each item listed
Property: fraction unbound

[
  {
    "Compound": "Nc1ncc(-c2nc3c(c(N4CCOCC4)n2)OCC2(CC2)O3)cn1",
    "Property": "fraction unbound",
    "Result": 0.134
  },
  {
    "Compound": "Nc1ncc(-c2nc3c(c(N4CCOCC4)n2)OCC(CF)O3)cn1 (stereo not drawn)",
    "Property": "fraction unbound",
    "Result": 0.17
  },
  {
    "Compound": "Nc1ncc(-c2nc3c(c(N4CCOCC4)n2)OCC(C(F)(F)F)O3)cn1 (stereo not drawn)",
    "Property": "fraction unbound",
    "Result": 0.183
  },
  {
    "Compound": "C[C@@H]1COc2nc(-c3cnc(N)nc3)nc(N3CCOCC3)c2O1",
    "Property": "fraction unbound",
    "Result": 0.2
  },
  {
    "Compound": "Nc1ncc(-c2nc3c(c(N4CCOCC4)n2)OCCO3)cn1",
    "Property": "fraction unbound",
    "Result": 0.285
  },
  {
    "Compound": "CN1C(=O)COc2c(N3CCOCC3)nc(-c3cnc(N)nc3)nc21",
    "Property": "fraction unbound",
    "Result": 0.16
  }
]
